Biological target: T1, Rat plasma Kallikrein (rat, UniProt P14272 391-638, limits assumed)
T1 construct: domain: catalytic domain; also called rPK; rat PK
T1 sequence (P14272 391-638 limits assumed): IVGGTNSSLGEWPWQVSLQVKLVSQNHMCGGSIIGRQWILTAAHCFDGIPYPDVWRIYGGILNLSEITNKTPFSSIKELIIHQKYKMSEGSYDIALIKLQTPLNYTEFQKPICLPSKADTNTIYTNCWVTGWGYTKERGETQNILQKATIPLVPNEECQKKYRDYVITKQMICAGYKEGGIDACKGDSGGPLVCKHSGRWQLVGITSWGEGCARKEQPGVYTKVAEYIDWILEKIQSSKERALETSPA
Assay: enzyme inhibition assay
Numbered stars: 1 amine (or outer) side, 2 acyl side, 3 side chain; on linkers, the order of the positions; unused ones are H or OH. Bridge positions count the residues as written; N and C are the ends. Ends that are not written are not given here. TBMB = c1c(C[*:1])cc(C[*:3])cc1C[*:2]
# pKi per record follows
The value called pKi is obtained by taking minus log10 of the concentration in mol/L.

Lookup: What measured pKi goes with ACFKACRVNCA (linker 2-6-10 via TBMB, also called PK117) [3B3] ?
Found: 7.62

Lookup: Same for ACFKHCRVACA (linker 2-6-10 via TBMB, also called PK123) [3B8]
Found: 7.92

Lookup: Same for ACRWPARCTHQNYCA (linker 2-8-14 via TBMB; not fully specified (N-terminus, C-terminus), also called PK106) [06-54 (2A2)]
Found: 8.15

Lookup: Same for H-ACSDRFRNCPADEALCG-NH2 (linker 2-9-16 via TBMB, 6x6 bicyclic peptide) [PK15]
Found: 6.03

Continuing:
Lookup: What measured pKi goes with ACTYPYKCLHQNLCA (linker 2-8-14 via TBMB, also called PK112) [2A10] ?
Found: 7.18
